Cited source: patent US8476265B2

subject-of-test: Adrenergic β2 (Homo sapiens, UniProt P07550)
Construct: Adherent H292 cells are removed from tissue culture flasks by treatment with Accutase™ cell detachment solution; endogenous in cells; host or cells: H292 cells
Sequence (P07550 whole entry): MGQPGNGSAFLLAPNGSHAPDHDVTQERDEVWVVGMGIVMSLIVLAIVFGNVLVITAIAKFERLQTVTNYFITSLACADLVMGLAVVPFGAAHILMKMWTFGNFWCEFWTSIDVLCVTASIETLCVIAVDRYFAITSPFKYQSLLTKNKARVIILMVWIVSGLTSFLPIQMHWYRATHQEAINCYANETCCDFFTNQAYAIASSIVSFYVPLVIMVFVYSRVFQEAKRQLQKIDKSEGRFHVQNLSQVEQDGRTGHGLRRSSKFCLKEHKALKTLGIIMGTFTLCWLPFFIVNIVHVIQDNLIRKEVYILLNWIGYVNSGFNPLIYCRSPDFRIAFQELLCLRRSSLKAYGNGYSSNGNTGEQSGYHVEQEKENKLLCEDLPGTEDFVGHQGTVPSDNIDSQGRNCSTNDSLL
procedure-text: Adrenergic β2 mediated cAMP production in H292 cells, single concentration 1 μM
Type: cell-based
experimental-context: NCI-H292, 1 μM compound, cAMP as percentage of the maximum response generated by 1E-07M formoterol, read-out: β2 % effect @1 uM
Field 'label' (enum: YES / NO). Set to YES when percent of formoterol maximum response at 1 µM is strictly under 90%; else NO.

INSERT INTO measurements (chemical_string, classification) VALUES
  ('O=C1COc2c(CCNCCN(C(=O)CCOCCc3cccc(CN4CCC5(CC4)CN(C(=O)c4cccc(Cl)c4)CCO5)c3)C3CCCCC3)ccc(O)c2N1', 'NO'),
  ('CCCCc1nc(C(=O)N2CCOC3(CCN(Cc4cccc(CCOCCC(=O)N(CCNCCc5ccc(O)c6c5OCC(=O)N6)C5CCCCC5)c4)CC3)C2)cs1', 'YES'),
  ('O=C1COc2c(CCNCCN(C(=O)CCOCCc3cccc(CN4CCC5(CC4)CN(C(=O)c4cnc6ccccc6n4)CCO5)c3)C3CCCCC3)ccc(O)c2N1', 'YES');

Attention now turns to another entry.
Regarding Cc1ncc(Br)cc1C(=O)N1CCOC2(CCN(Cc3cccc(CCOCCC(=O)N(CCNCCc4ccc(O)c5c4OCC(=O)N5)C4CCCCC4)c3)CC2)C1 , kindly confirm whether its percent of formoterol maximum response at 1 µM is beneath 90%. NO

----------
subject-of-test: Adrenergic β2 (Homo sapiens, UniProt P07550)
Construct: Adherent H292 cells are removed from tissue culture flasks by treatment with Accutase™ cell detachment solution; endogenous in cells; host or cells: H292 cells
procedure-text: Adrenergic β2 mediated cAMP production in H292 cells (AlphaScreen), concentration response
Format: cell-based
experimental-context: 60 min, 300 μM rolipram, read-out: β2 pEC50 (converted)
Field 'label' (enum: 1 / -1). Set to 1 when EC50 is strictly under 40 nM; else -1.

INSERT INTO results (compound, subject_of_test, classification) VALUES
  ('COCCN(CCNCCc1ccc(O)c2c1OCC(=O)N2)C(=O)CCOCCc1cccc(CN2CCC3(CC2)CN(C(=O)c2csc(C(C)C)n2)CCO3)c1Cl [Example 70, ditrifluoroacetate]', 'Adrenergic β2 (Homo sapiens, UniProt P07550)', -1);

Regarding O=C1COc2c(CCNCCN(C(=O)CCOCCc3cccc(CN4CCC5(CC4)CN(C(=O)[C@@H]4C[C@H]4c4ccccc4)CCO5)c3)C3CCCCC3)ccc(O)c2N1 [Example 167] , kindly confirm whether its EC50 is beneath 40 nM. -1

Regarding CC(C)c1nc(C(=O)N2CCOC3(CCN(CCOc4cccc(CCOCCC(=O)N(CCNCCc5ccc(O)c6c5OCC(=O)N6)C5CCCCC5)c4)CC3)C2)cs1 [Example 53, ditrifluoroacetate] , kindly confirm whether its EC50 is beneath 40 nM. 1

Regarding Cc1ccc(CN(CCNCCc2ccc(O)c3c2OCC(=O)N3)C(=O)CCOCCc2cccc(CN3CCC4(CC3)CN(C(=O)c3csc(C(C)C)n3)CCO4)c2F)cc1 [Example 22] , kindly confirm whether its EC50 is beneath 40 nM. -1

Regarding CC(C)c1csc(C(=O)N2CCOC3(CCN(Cc4cccc(CCOCCC(=O)N(CCNCCc5ccc(O)c6c5OCC(=O)N6)C5CCCCC5)c4)CC3)C2)c1 [Example 98] , kindly confirm whether its EC50 is beneath 40 nM. -1

Regarding CCCC[C@@H](C)N(CCNCCc1ccc(O)c2c1OCC(=O)N2)C(=O)CCOCCc1cccc(CN2CCC3(CC2)CN(C(=O)c2csc(C(C)C)n2)CCO3)c1F [Example 18, ditrifluoroacetate] , kindly confirm whether its EC50 is beneath 40 nM. 1

Regarding CCN(CCNCCc1ccc(O)c2[nH]c(=O)sc12)C(=O)CCOCCc1cc(CN2CCC3(CC2)CN(C(=O)c2csc(C)n2)CCO3)ccc1Cl [Example 46] , kindly confirm whether its EC50 is beneath 40 nM. -1

Regarding CCCCc1nc(C(=O)N2CCOC3(CCN(Cc4cccc(CCOCCC(=O)N(CC)CCNCCc5ccc(O)c6c5OCC(=O)N6)c4Cl)CC3)C2)cs1 [Example 77, ditrifluoroacetate] , kindly confirm whether its EC50 is beneath 40 nM. 1

Regarding CCC(CC)c1nc(C(=O)N2CCOC3(CCN(Cc4cccc(CCOCCC(=O)N(CCNCCc5ccc(O)c6c5OCC(=O)N6)C5CCCCC5)c4)CC3)C2)cs1 [Example 96] , kindly confirm whether its EC50 is beneath 40 nM. -1

Regarding CCCCN(CCNCCc1ccc(O)c2c1OCC(=O)N2)C(=O)CCOCCc1cc(C)cc(CN2CCC3(CC2)CN(C(=O)c2csc(C(C)C)n2)CCO3)c1 [Example 65, ditrifluoroacetate] , kindly confirm whether its EC50 is beneath 40 nM. -1
